# Test system: Rhizoctonia solani
# assayText: Antifungal activity against Rhizoctonia solani 1583 after 24 to 48 hrs by soft agar procedure
# Assay type: functional
readoutLabel: MIC
Number first, unit second.

Illustrative cases are given below, each with its answer.
In: Reported MIC, compound C/C=C(\NC(=O)[C@H](NC(=O)[C@H](CC(C)C)NC(=O)[C@@H](CCC(N)=O)NC(=O)[C@@H](NC(=O)[C@H](NC(=O)[C@@H](CC(C)C)NC(=O)[C@@H](CO)NC(=O)[C@H](NC(=O)[C@H](CC(C)C)NC(=O)[C@H](CO)NC(=O)[C@H]1CCCN1C(=O)/C(=C/C)NC(=O)CC(O)CCCCC)C(C)C)C(C)C)C(C)C)C(C)C)C(=O)N[C@H]1C(=O)N[C@@H]([C@@H](C)CC)C(=O)NCC(=O)N[C@H](CCN)C(=O)N[C@@H](CCCCN)C(=O)O[C@@H]1C (some centres undefined) : ____
Out: 0.64 µg

In: Reported MIC, compound C/C=C(\NC(=O)[C@H](NC(=O)[C@H](CC(C)C)NC(=O)[C@@H](CCC(N)=O)NC(=O)[C@@H](NC(=O)[C@H](NC(=O)[C@@H](CC(C)C)NC(=O)[C@@H](CO)NC(=O)[C@H](NC(=O)[C@H](CC(C)C)NC(=O)[C@H](CO)NC(=O)[C@H]1CCCN1C(=O)/C(=C/C)NC(=O)CCCC(=O)O)C(C)C)C(C)C)C(C)C)C(C)C)C(=O)N[C@H]1C(=O)N[C@@H]([C@@H](C)CC)C(=O)N[C@@H](CCO)C(=O)N[C@H](CCN)C(=O)N[C@@H](CCCCN)C(=O)O[C@@H]1C : ____
Out: 1.28 µg

In: Reported MIC, compound C/C=C(\NC(=O)[C@H](NC(=O)[C@H](CC(C)C)NC(=O)[C@@H](CCC(N)=O)NC(=O)[C@@H](NC(=O)[C@H](NC(=O)[C@@H](CC(C)C)NC(=O)[C@@H](CO)NC(=O)[C@H](NC(=O)[C@H](CC(C)C)NC(=O)[C@H](CO)NC(=O)[C@H]1CCCN1C(=O)/C(=C/C)NC(=O)CC(O)CCCCC)C(C)C)C(C)C)C(C)C)C(C)C)C(=O)N[C@H]1C(=O)N[C@@H]([C@@H](C)CC)C(=O)N[C@@H](CCO)C(=O)N[C@H](CCN)C(=O)N[C@@H](CCCCN)C(=O)O[C@@H]1C (some centres undefined) : ____
Out: 0.32 µg

New cases:
In: Reported MIC, compound C/C=C(\NC(=O)[C@H](NC(=O)[C@H](CC(C)C)NC(=O)[C@@H](CCC(N)=O)NC(=O)[C@@H](NC(=O)[C@H](NC(=O)[C@@H](CC(C)C)NC(=O)[C@@H](CO)NC(=O)[C@H](NC(=O)[C@H](CC(C)C)NC(=O)[C@H](CO)NC(=O)[C@H]1CCCN1C(=O)/C(=C/C)NC(=O)CC(O)CCCCC)C(C)C)C(C)C)C(C)C)C(C)C)C(=O)N[C@H]1C(=O)N[C@@H](CC(C)C)C(=O)NCC(=O)N[C@H](CCN)C(=O)N[C@@H](CCCCN)C(=O)O[C@@H]1C (some centres undefined) : ____
Out: 5.12 µg
